- protocol: Cytotoxicity against African green monkey Vero E6 cells by CCK8 assay
- Type: cell-based, Vero C1008
- cond: chlorocebus sabaeus
measuredAttribute: CC50

Here are 2 compounds together with their reported answers.
smiles | val
NC(=O)c1ncn([C@@H]2O[C@H](CO)[C@@H](O)[C@H]2O)n1 | > 400 µM
Nc1nc2c(ncn2CCC(CO)CO)c(=O)[nH]1 | > 400 µM

Give CC50 for the following compound: NC(=O)c1nc(F)c[nH]c1=O
> 400 µM

* * *

- protocol: Inhibition of C-terminal 6His-tagged SARS-CoV papain-like protease expressed in Escherichia coli BL21 (DE3) CodonPlus-RIL using Arg-Leu-Arg-Gly-Gly-AMC as substrate by fluorescence method
- Parameters: species or system Severe acute respiratory syndrome-related coronavirus
measuredAttribute: IC50

Give IC50 for the following compound: O=C(/C=C/CCc1ccc(O)c(O)c1)CCc1ccc(O)c(O)c1 [DEHYDROHIRSUTANONOL]
4.1 µM

Values were extracted from ChEMBL document CHEMBL4680271.
